System: P388 leukemia ip, CD2F1 mice, survival T/C
EXPERIMENT DESCRIPTION: NCI In Vivo Anticancer Drug Screen. Data for tumor model P388 Leukemia (intraperitoneal) in CD2F1 (CDF1) mice
EXPERIMENTAL PARAMETERS: endpoint: median survival time; dose: 6.25 mg/kg/injection; schedule: Q01DX009 (ip); vehicle: Klucel (hydroxypropylcellulose) (HPC); higher = longer survival
Toxic doses and inconclusive results are not listed.
Item-by-item account of T/C

{"COMPOUND": "c1ccc(-c2c3ccccc3c[n+]3ccccc23)cc1", "EXPERIMENTAL RESULT": "92 % of control"}
{"COMPOUND": "CSc1nc2ccc(N3C(=O)C=CC3=O)cc2s1", "EXPERIMENTAL RESULT": "105 % of control"}
{"COMPOUND": "N#CC1(C#N)C2C=CC(C3CC=CC32)C1(C#N)C#N (stereo not given)", "EXPERIMENTAL RESULT": "98 % of control"}
{"COMPOUND": "O=C1CN(C(=O)Nc2ccc(Cl)c(Cl)c2)C(=S)N1", "EXPERIMENTAL RESULT": "88 % of control"}
{"COMPOUND": "CCN(CC)CCCC(C)Nc1cc(/C=C/c2ccc(Cl)cc2)nc2cc(N(C)C)ccc12 (stereo not given)", "EXPERIMENTAL RESULT": "110 % of control"}

Consider the compound Cc1nc(N=C(N)N)nc2ccc3ccccc3c12 and give its measured T/C. 104 % of control

Input CCSc1nc2ccc(N3C(=O)C=CC3=O)cc2s1 119 % of control

====

Tested on: P388 leukemia ip, CD2F1 mice, survival T/C
EXPERIMENT DESCRIPTION: NCI In Vivo Anticancer Drug Screen. Data for tumor model P388 Leukemia (intraperitoneal) in CD2F1 (CDF1) mice
EXPERIMENTAL PARAMETERS: endpoint: median survival time; dose: 200.0 mg/kg/injection; schedule: Q04DX003 (ip); vehicle: Klucel (hydroxypropylcellulose) (HPC)
Toxic doses and inconclusive results are not listed. How the source made its calls: active means survival T/C of 150% or more; inactive means T/C below 125% in these data.
Pick one: 1.0 for active, 0.0 for inactive

For orientation, consider the following solved cases.
{"COMPOUND": "Cc1ccc(OP(=O)(Oc2ccc(C)cc2)Oc2ccc(C)cc2)cc1.Cc1ccc(OP(=O)(Oc2ccc(C)cc2)Oc2ccc(C)cc2)cc1.[Cl][Mn][Cl]", "ASSAYED SYSTEM": "P388 leukemia ip, CD2F1 mice, survival T/C", "GROUP LABEL": 0.0}
{"COMPOUND": "C=CCc1cc(OC)c(OCC(=O)O)c(OC)c1", "ASSAYED SYSTEM": "P388 leukemia ip, CD2F1 mice, survival T/C", "GROUP LABEL": 0.0}
{"COMPOUND": "Cc1nnc(N/N=C/c2ccccc2)n1/N=C\\c1ccccc1", "ASSAYED SYSTEM": "P388 leukemia ip, CD2F1 mice, survival T/C", "GROUP LABEL": 0.0}
{"COMPOUND": "O=[N+]([O-])c1ccc(N=Nc2ccc(N(CCCl)CCCl)cc2)cc1", "ASSAYED SYSTEM": "P388 leukemia ip, CD2F1 mice, survival T/C", "GROUP LABEL": 0.0}
{"COMPOUND": "COc1ccc(C(=O)N2C(=O)CCC2=O)cc1", "ASSAYED SYSTEM": "P388 leukemia ip, CD2F1 mice, survival T/C", "GROUP LABEL": 0.0}

Recorded test outcome, item CCCCc1c(C(=O)OCC)oc(C(=O)OCC)c(CCCC)c1=O 0.0

====

Item-by-item account of T/C
System: P388 leukemia ip, CD2F1 mice, survival T/C
EXPERIMENT DESCRIPTION: NCI In Vivo Anticancer Drug Screen. Data for tumor model P388 Leukemia (intraperitoneal) in CD2F1 (CDF1) mice
EXPERIMENTAL PARAMETERS: endpoint: median survival time; dose: 60.0 mg/kg/injection; schedule: Q01DX005 (ip); vehicle: saline with Tween-80; higher = longer survival
Procedure: The antitumor activity of compounds was measured in mice bearing transplantable tumors. Survival or tumor size were measured and the results are expressed as the measurement made in the treated group (T) divided by the measurement made in the vehicle treated control group (C). The tumor model used in this assay is P388 Leukemia (intraperitoneal) in CD2F1 (CDF1) mice
Toxic doses and inconclusive results are not listed.

Consider the compound [N-]=[N+]=Nc1ccnc2cc(F)ccc12 and give its measured T/C. 96 % of control

Input CCCCC1(C2c3ccccc3Oc3ccccc32)C(=O)N(c2ccccc2)N(c2ccccc2)C1=O 98 % of control

Input O=C1c2ccccc2OCC1/C=N/O (stereo unspecified) 95 % of control

====

Item-by-item account of T/C
Test system: P388 leukemia ip, CD2F1 mice, survival T/C
EXPERIMENT DESCRIPTION: NCI In Vivo Anticancer Drug Screen. Data for tumor model P388 Leukemia (intraperitoneal) in CD2F1 (CDF1) mice
EXPERIMENTAL PARAMETERS: endpoint: median survival time; dose: 50.0 mg/kg/injection; schedule: Q04DX003 (ip); vehicle: saline with Tween-80; higher = longer survival
Inconclusive results and toxic doses are left out.

Consider the reported T/C for these compounds:
{"SMILES STR": "Cc1ccccc1Nc1c2ccccc2nc2ccccc12", "ASSAYED SYSTEM": "P388 leukemia ip, CD2F1 mice, survival T/C", "T/C": "104 % of control"}
{"SMILES STR": "C/C(=N\\NC(N)=S)c1cccc(/C(C)=N/NC(N)=S)n1", "ASSAYED SYSTEM": "P388 leukemia ip, CD2F1 mice, survival T/C", "T/C": "89 % of control"}

Shifting focus to the compound that follows.
Consider the compound CC(=O)N1c2ccccc2Sc2cc(C(O)(C(F)(F)F)C(F)(F)F)ccc21 and give its measured T/C. 100 % of control

====

Tested on: P388 leukemia ip, CD2F1 mice, survival T/C
EXPERIMENT DESCRIPTION: NCI In Vivo Anticancer Drug Screen. Data for tumor model P388 Leukemia (intraperitoneal) in CD2F1 (CDF1) mice
EXPERIMENTAL PARAMETERS: endpoint: median survival time; dose: 50.0 mg/kg/injection; schedule: Q01DX009 (ip); vehicle: water; higher = longer survival
Inconclusive results and toxic doses are left out.
PROPERTY MEASURED: T/C

Consider the compound COc1cccc2c1C(=O)c1c(O)c3c(c(O)c1C2=O)C[C@@](O)(C(=O)O)C[C@@H]3OC1CC(N)C(O)C(C)O1 (stereo not given in full) and give its measured T/C. 155 % of control

Input C=CCC(=C)C(=O)OC 102 % of control

Input COc1ccc(-c2nc(C)cc3cc(OC)c(OC)cc23)cc1OC 100 % of control

Input CCN(CC)C(=O)Nc1ccc(OCC(O)CNC(C)(C)C)c(C(C)=O)c1 (stereo not given) 114 % of control

Input O=C1C2C3C=CC(C2C(=O)N1CO)C1C2C(=O)N(CO)C(=O)C2C31 (stereo not given) 208 % of control

====

Item-by-item account of T/C
Tested on: P388 leukemia ip, CD2F1 mice, survival T/C
EXPERIMENT DESCRIPTION: NCI In Vivo Anticancer Drug Screen. Data for tumor model P388 Leukemia (intraperitoneal) in CD2F1 (CDF1) mice
EXPERIMENTAL PARAMETERS: endpoint: median survival time; dose: 50.0 mg/kg/injection; schedule: Q01DX005 (ip); vehicle: saline with Tween-80; higher = longer survival
Inconclusive results and toxic doses are left out.

Consider the reported T/C for these molecules:
{"MOLECULE": "C=CCOc1c(C=O)cccc1OC", "T/C": "100 % of control"}
{"MOLECULE": "O=[N+]([O-])c1cc(I)c(O)c(/C=N/NS(=O)(=O)c2ccc(Cl)cc2)c1", "T/C": "101 % of control"}
{"MOLECULE": "CCCOc1cc2c(cc1C(C)c1ccc(OCC)cc1)OCO2 (configuration not stated)", "T/C": "115 % of control"}
{"MOLECULE": "COc1cc([C@@H]2c3cc4c(cc3[C@H](O)[C@H]3COC[C@@H]23)OCO4)cc(OC)c1OC", "T/C": "103 % of control"}
{"MOLECULE": "C1CNC(C2=NCCN2)=N1", "T/C": "108 % of control"}

Consider the molecule CCC(=O)C(=O)CC1CC(c2ccco2)=Nc2ccccc2S1 (configuration not stated) and give its measured T/C. 111 % of control

Input CC(=O)c1ccc(-n2c(=O)n(-c3ccccc3)c3nc4cc(C)ccc4nc32)cc1 90 % of control

====

Item-by-item account of T/C
Test system: P388 leukemia ip, CD2F1 mice, survival T/C
EXPERIMENT DESCRIPTION: NCI In Vivo Anticancer Drug Screen. Data for tumor model P388 Leukemia (intraperitoneal) in CD2F1 (CDF1) mice
EXPERIMENTAL PARAMETERS: endpoint: median survival time; dose: 50.0 mg/kg/injection; schedule: Q01DX009 (ip); vehicle: Klucel (hydroxypropylcellulose) (HPC); higher = longer survival
Toxic doses and inconclusive results are not listed.

{"COMPOUND": "CCCCCCC(O)/C=C/c1ccc(N(C)C)cc1 (configuration not stated)", "T/C": "103 % of control"}

Consider the compound CCN(CC)Cc1cc(N=Nc2cccc3ccccc23)c2ccccc2c1O and give its measured T/C. 102 % of control

Input N#CC(C#N)=C(c1ccccc1)c1ccccc1 95 % of control

Input ClC12CCC(c3ccccc3)(CC1)CC2 105 % of control

Input Cc1cc(Cl)ccc1OCC(C)OC(=O)NC(C)C (configuration not stated) 106 % of control

Input CCOc1ccc(NC(=O)c2c(N)n(C)c(=O)n(C)c2=O)cc1 88 % of control

Input CC(C)CC(C)NC(=O)Nc1ccc(Cc2ccc(NC(=O)NC(C)CC(C)C)cc2)cc1 (configuration not stated) 96 % of control

Input CC(=O)OC1(c2nccc3ccccc23)CCN(Cc2ccccc2)CC1 106 % of control

The origin of these recorded values is PubChem BioAssay AID330.
